Reference for the values: ChEMBL document CHEMBL1129520

target: Histamine H3 receptor (Rattus norvegicus, UniProt Q9QYN8); assay: In vitro antagonistic activity tested against Histamine H3 receptor on synaptosomes from rat cerebral cortex; format: functional, subcellular, Brain
Sequence (Q9QYN8 whole entry): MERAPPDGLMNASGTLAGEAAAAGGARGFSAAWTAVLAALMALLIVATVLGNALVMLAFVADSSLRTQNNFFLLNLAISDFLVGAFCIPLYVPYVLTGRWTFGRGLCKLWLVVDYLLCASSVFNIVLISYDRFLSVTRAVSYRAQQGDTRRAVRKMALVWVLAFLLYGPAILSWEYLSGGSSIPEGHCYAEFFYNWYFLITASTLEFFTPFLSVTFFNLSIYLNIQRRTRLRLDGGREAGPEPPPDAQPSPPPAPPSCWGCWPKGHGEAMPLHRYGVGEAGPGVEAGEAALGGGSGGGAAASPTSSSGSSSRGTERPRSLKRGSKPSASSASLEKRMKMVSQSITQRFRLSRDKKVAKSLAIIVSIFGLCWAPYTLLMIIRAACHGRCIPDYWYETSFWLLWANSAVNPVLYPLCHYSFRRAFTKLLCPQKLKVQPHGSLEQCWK
Reported pKi values for the following molecules.
Interpret pKi as the negative base-10 log of the concentration measured in mol/L.

Can you share its pKi? I mean this molecule: O=C(Nc1ccc(I)cc1)OCCCc1cnc[nH]1
7.96

Can you share its pKi? I mean this molecule: Ic1ccc(CCCOCCCc2c[nH]cn2)cc1
7.46

====

Reported pKi values for the following compounds.
target: UniProt:Q9QYN8; assay: In vitro antagonistic activity tested against Histamine H3 receptor on synaptosomes from rat cerebral cortex; assay type: functional, subcellular, Brain
Interpret pKi as the negative base-10 log of the concentration measured in mol/L.

Before answering, review these 3 worked examples.
S=C(NC1CCCCC1)N1CCC(c2cnc[nH]2)CC1 [THIOPERAMIDE] = 8.40
Cc1[nH]cnc1CSCCNC(=N)NCCCc1c[nH]cn1 [IMPROMIDINE] = 7.20
OCCCc1c[nH]cn1 = 6.40

Lab note: next compound to report on.
Can you share its pKi? I mean this compound: O=C(Nc1ccc(I)cc1)OCCCc1cnc[nH]1
8.00
